- Assay system: UniProtKB O43924
- Sequence (O43924 whole entry): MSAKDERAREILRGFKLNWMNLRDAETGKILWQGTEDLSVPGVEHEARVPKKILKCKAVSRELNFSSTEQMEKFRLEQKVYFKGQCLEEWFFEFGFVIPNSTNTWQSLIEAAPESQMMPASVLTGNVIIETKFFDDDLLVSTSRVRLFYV
Metric: Kd (µM)
One number for each entry, in µM.

(Q) So what does the record say about Kd for O=C(COc1cccc2c1C(=O)N(C1CCC(=O)NC1=O)C2=O)NCCCOCCOCCOCCCNC(=O)c1cc(Oc2ccc(NC(=O)Nc3ccc(Cl)c(C(F)(F)F)c3)cc2)ccn1 (stereo not shown) ?
(A) 2.26
